# STUDY_TARGET: STAT3 (Homo sapiens)
# Construct: Colorectal carcinoma HCT116 cells were co-transfected with a plasmid carrying firefly luciferase, whose expression increases with STAT3 activity; endogenous in cells
# Sequence (P40763 whole entry): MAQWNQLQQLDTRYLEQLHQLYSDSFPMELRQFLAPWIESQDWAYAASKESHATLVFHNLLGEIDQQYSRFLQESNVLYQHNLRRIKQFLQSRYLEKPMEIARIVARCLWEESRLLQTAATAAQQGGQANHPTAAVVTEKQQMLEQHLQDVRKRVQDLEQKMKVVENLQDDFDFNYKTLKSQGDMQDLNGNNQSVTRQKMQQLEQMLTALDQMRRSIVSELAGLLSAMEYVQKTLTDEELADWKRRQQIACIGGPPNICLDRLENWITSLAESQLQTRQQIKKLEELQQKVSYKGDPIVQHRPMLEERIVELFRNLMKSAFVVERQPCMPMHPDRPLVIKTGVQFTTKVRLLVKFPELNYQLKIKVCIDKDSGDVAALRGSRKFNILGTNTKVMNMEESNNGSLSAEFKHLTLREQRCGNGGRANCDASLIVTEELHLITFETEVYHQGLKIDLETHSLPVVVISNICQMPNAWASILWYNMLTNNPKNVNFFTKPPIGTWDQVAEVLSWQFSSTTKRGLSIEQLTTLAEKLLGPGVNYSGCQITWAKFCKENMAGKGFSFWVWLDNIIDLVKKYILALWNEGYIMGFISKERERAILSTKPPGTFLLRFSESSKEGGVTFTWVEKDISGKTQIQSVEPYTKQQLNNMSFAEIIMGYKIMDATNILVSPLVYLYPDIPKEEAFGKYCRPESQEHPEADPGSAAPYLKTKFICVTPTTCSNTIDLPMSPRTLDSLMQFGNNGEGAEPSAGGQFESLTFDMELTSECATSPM
# ASSAY_REMARKS: dual luciferase assay for STAT3 inhibitory activity in transfected HCT116 cells
# SETUP_CONDITIONS: HCT116 cells transfected with STAT3-dependent firefly luciferase; 12 hrs or 24 hrs; read-out: concentration inhibiting 50% of STAT3 activity
# Procedure: A dual luciferase assay was performed to determine whether the oxadiazole urea compound of the present invention has inhibitory activity against STAT3. […] After 12 hrs or 24 hrs, STAT activity was assayed by adding two different substrates for firefly luciferase and renilla luciferase, beetle luciferin and coelenterazine, to the medium. The luminescence intensity by substrate degradation was measured using a luminometer (Wallac 1420). […]
MEASURED_ATTRIBUTE: IC50

Tell me IC50 reported for O=C(Nc1ccc(C(F)(F)F)cc1)Nc1nonc1-c1ccc(Cl)cc1
2500 to 3000 nM
